The reported numbers originate from ChEMBL document CHEMBL3779837.

Target: Toll-like receptor 4 (Mus musculus, UniProt Q9QUK6)
Sequence (Q9QUK6 whole entry): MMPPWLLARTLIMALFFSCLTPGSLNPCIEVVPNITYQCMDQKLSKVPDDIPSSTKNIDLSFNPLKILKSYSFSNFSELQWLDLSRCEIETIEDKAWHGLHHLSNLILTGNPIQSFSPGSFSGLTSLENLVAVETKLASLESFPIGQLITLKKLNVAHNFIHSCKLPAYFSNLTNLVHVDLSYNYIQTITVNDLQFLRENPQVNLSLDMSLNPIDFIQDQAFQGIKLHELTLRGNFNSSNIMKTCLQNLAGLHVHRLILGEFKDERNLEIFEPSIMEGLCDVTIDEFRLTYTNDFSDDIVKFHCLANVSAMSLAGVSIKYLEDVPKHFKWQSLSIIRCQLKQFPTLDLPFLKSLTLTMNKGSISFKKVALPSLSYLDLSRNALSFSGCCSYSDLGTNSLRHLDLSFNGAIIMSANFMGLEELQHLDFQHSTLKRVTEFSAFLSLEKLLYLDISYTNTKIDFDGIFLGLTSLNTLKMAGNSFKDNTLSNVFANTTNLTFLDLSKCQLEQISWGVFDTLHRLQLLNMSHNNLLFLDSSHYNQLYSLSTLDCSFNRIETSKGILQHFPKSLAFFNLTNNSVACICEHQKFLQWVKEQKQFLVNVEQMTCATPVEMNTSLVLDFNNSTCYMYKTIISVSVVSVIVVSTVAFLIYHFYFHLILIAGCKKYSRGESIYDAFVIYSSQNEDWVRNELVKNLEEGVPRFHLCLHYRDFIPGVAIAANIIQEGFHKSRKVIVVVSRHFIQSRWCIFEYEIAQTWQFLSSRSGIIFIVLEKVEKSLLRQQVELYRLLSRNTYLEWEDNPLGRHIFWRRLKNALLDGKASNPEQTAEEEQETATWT
Assay: Inhibition of TLR4 in LPS/INFgamma stimulated mouse peritoneal macrophages assessed as inhibition of IL1-beta after 20 hrs by ELISA analysis
property.measured: IC50 (nM)
Provide only the numeric value, understood in nM.

Quick check: IC50 of CCOC(=O)C1=CCCC[C@H]1S(=O)(=O)Nc1ccc(F)cc1Cl [RESATORVID] ?
5.7
